Data credit: patent US20130102595A1

assayed system: PI3Kα (p110α/p85α) (Homo sapiens, UniProt P42336)
Construct: GST (N)
Sequence (P42336 whole entry): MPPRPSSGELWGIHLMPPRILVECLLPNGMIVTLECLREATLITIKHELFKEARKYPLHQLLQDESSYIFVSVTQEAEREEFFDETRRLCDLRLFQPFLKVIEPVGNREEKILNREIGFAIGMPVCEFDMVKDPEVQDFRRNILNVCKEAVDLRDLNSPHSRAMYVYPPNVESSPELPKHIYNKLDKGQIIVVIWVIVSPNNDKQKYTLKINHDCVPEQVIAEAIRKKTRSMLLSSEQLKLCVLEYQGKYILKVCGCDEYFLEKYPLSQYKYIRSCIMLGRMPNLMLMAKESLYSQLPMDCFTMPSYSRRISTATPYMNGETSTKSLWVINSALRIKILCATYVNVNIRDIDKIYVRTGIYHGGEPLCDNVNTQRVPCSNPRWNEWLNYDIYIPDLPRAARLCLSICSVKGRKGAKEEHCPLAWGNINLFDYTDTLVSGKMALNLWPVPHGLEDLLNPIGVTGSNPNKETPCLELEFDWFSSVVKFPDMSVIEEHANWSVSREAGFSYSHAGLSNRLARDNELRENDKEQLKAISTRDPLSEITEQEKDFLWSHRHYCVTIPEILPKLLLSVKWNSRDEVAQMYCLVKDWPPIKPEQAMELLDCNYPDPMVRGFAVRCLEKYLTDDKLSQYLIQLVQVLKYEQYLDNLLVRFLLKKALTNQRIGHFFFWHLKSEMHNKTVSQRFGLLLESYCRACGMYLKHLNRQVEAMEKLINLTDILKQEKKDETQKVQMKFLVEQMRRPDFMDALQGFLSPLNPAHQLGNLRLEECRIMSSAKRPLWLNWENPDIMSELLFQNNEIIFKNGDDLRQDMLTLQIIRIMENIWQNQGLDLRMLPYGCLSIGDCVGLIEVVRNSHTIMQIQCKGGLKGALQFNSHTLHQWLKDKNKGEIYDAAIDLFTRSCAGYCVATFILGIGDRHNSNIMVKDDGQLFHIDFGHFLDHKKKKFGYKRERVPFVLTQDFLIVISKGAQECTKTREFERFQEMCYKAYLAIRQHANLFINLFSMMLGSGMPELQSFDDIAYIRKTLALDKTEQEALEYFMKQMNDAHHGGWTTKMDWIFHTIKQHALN
Sequence (P27986 whole entry partner): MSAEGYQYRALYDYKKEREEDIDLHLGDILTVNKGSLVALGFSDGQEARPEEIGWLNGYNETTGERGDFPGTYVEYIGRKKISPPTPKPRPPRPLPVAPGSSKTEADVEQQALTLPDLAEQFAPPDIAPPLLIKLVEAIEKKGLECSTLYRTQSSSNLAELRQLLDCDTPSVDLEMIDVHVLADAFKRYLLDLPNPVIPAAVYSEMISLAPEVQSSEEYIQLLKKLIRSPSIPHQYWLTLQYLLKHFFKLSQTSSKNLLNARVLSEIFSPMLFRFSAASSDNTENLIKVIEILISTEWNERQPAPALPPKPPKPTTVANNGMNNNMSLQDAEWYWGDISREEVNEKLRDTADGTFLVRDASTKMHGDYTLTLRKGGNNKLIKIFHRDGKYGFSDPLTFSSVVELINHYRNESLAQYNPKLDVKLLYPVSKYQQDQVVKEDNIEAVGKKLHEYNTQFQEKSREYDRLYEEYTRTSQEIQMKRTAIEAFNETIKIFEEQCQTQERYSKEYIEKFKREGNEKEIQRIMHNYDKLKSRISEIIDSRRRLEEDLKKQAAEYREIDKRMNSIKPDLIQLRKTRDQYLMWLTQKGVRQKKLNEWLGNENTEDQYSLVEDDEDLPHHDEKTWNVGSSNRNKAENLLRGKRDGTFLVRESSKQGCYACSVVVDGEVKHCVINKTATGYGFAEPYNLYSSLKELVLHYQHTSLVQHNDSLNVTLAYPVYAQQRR
measurement description: PI3Kα ADP-Glo assay
test settings: 20 μM PIP2, 10 μM ATP, 30 minutes
Protocol: (A) an In Vitro Assay which Determines the Ability of a Test Compound to Inhibit PI3Kα. Activity of PI3Kα was measured using ADP-Glo assay from Promega. […] The ADP generated was then detected by ADP-Glo assay from Promega, a luminescent ADP detection assay. […] Second, the Kinase Detection Reagent is added to simultaneously convert ADP to ATP and allow the newly synthesized ATP to be measured using a luciferase/luciferin reaction.
Reported IC50 values are given for each entry in this list.

CNc1ccc(-c2nc(N3CCOCC3)c3sc(CN(C)c4ncc(C(=O)NO)cn4)cc3n2)cc1 [Compound 151]: > 10 µM
CCCc1nc2cc(/C=C/C(=O)NO)ccc2n1CCN(C)Cc1cc2nc(-c3ccc(N)cc3)nc(N3CCOCC3)c2s1 [Compound 324]: 0.1 to 1 µM
CNc1ccc(-c2nc(N3CCOCC3)c3sc(C(=O)NCC4CCN(c5ncc(C(=O)NO)cn5)CC4)cc3n2)cn1 [Compound 308]: < 0.1 µM

Now consider the entry below.
Could you share which IC50 value was measured for C[C@@H](O)c1cccc(-c2nc(N3CCOCC3)c3sc(CN(C)c4ncc(C(=O)NO)cn4)cc3n2)c1 [Compound 297] ?
0.1 to 1 µM
